- Tested on: SK-OV-3 ovarian
- measurement_protocol: NCI tumour cell line growth inhibition, 48 h
Binary call on TGI: Fulfilled from 60 µM upward, Not fulfilled beneath that.

# input Say whether `CC(=O)[O-].[Mn+3].[O-]c1ccc(Cl)cc1C=NCCN=Cc1cc(Cl)ccc1[O-]` shows TGI of 60 µM or more.
# output Fulfilled

# input Is it the case that COC(=O)c1ccccc1C1CN=NC12Cc1c(C)ccc(C)c1C2=O (stereo unspecified) has TGI reaching or exceeding 60 µM?
# output Fulfilled

# input Hello, I need to know if `CCN(CC)CCNc1ccc([N+](=O)[O-])c2sc3cc(Cl)ccc3c(=O)c12` has measured TGI not below 60 µM. Thanks!
# output Fulfilled

# input Quick check: does `O=C(O)/C=C/c1ccncc1` have TGI greater than or equal to 60 µM?
# output Fulfilled

# input Determine whether this compound has TGI no lower than 60 µM: `COc1cc2cc3c(c(O)c2c(O)c1-c1c(OC)cc2cc4c(c(O)c2c1O)C(=O)O[C@H](C)C4)C(=O)O[C@H](C)C3`
# output Fulfilled

# input Decide: is the reported value of TGI for `Clc1ccc(C2=NCON=C2c2ccc(Cl)cc2)cc1` equal to or greater than 60 µM?
# output Not fulfilled

# input Textbook exercise: given the entry `COc1cc2c(cc1OCCCOc1ccc(-c3cc4ccccc4c4ccccc34)cc1)N=C[C@@H]1CCCN1C2=O` , state whether its TGI is greater than or equal to 60 µM.
# output Not fulfilled

# input Given `C(=C\c1c2oc(-c3ccccc3)cc(-c3ccccc3)c-2c2ccccc12)/C=C1\c2ccccc2-c2c(-c3ccccc3)cc(-c3ccccc3)[o+]c21` , state whether its TGI is at least 60 µM.
# output Fulfilled

# input For this compound, is measured TGI 60 µM or higher? `O=C1CNN=C(Cn2nc(-c3ccccc3)c3ccccc3c2=O)N1`
# output Fulfilled

# input Could you tell me if the measured TGI of COc1c(O)c2c3c(c1OC)-c1ccccc1CC3N(S(=O)(=O)c1ccc(C)cc1)CC2 (stereo unspecified) reaches 60 µM or more?
# output Not fulfilled

# input Is reported TGI greater than or equal to 60 µM here: `Cc1ccnc(Nc2ccc([N+](=O)[O-])c(NCCN3CCOCC3)n2)c1`
# output Fulfilled

# input For this compound, is measured TGI 60 µM or higher? `Cn1c(=O)c2c(nc(N/N=C3/SCC(=O)N3Cc3ccccc3)n2C)n(C)c1=O`
# output Fulfilled

# input Does `O=C(C(=O)c1cc(Br)ccc1O)c1cc(Br)ccc1O` have a reported TGI of at least 60 µM?
# output Not fulfilled
